Just for reference, ChEMBL document CHEMBL1135193 is where these values come from.

Target: Endothelin-converting enzyme 1 (Homo sapiens)
Sequence (P42892 whole entry): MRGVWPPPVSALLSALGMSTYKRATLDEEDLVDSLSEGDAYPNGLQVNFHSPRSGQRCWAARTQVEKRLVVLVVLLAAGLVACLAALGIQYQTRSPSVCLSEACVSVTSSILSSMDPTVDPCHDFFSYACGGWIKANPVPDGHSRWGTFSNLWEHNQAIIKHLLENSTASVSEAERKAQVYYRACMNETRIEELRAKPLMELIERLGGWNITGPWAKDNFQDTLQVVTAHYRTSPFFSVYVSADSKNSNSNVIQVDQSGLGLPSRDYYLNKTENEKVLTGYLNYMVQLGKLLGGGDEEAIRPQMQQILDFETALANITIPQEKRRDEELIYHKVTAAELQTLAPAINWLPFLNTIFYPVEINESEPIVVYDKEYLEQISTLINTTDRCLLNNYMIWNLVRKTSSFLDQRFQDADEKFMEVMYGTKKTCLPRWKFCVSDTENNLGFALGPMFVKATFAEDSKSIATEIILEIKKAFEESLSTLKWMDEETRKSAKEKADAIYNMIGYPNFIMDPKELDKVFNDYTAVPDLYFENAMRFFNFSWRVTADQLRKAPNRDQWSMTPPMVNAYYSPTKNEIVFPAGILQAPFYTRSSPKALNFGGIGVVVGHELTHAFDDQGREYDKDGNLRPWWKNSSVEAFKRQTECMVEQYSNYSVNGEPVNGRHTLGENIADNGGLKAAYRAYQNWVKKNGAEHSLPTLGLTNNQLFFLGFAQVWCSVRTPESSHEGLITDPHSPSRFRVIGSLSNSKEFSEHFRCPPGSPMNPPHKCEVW
Assay: In vitro inhibition of endothelin converting enzyme.
Result Type: Ki (nM)

1. COc1ccc2c(c1)CC[C@H]2[C@@H](CS)C(=O)N[C@@H](Cc1c[nH]c2ccccc12)C(=O)O ... 180

A = O=C(O)[C@H](Cc1c[nH]c2ccccc12)NC(=O)[C@@H](CS)[C@H]1CCc2cc(Br)ccc21
B = COc1cccc2c1CCC2C(CS)C(=O)NC(Cc1c[nH]c2ccccc12)C(=O)O (centres undefined)
C = N#Cc1ccc2c(c1)CCC2C(CS)C(=O)NC(Cc1c[nH]c2ccccc12)C(=O)O (centres undefined)
Put the compounds in ascending order of Ki. Reply with the labels, ordered as the question asks.
A, C, B

---

Readings of Ki for the listed compounds
biological target: Angiotensin-converting enzyme (Rattus norvegicus, UniProt P47820)
Field format: number, assumed nM, no unit text.

// solved cases for Ki follow
1) COc1cccc2c1CCC2C(CS)C(=O)NC(Cc1c[nH]c2ccccc12)C(=O)O (centres undefined) ... 8
2) COc1ccc2c(c1)CCC2C(CS)C(=O)NC(Cc1c[nH]c2ccccc12)C(=O)O (centres undefined) ... 11
3) COc1ccc2c(c1)CC[C@@H]2[C@@H](CS)C(=O)N[C@@H](Cc1c[nH]c2ccccc12)C(=O)O ... 24

For the compound shown here, COc1ccc2c(c1)CC[C@@H]2[C@H](CS)C(=O)N[C@@H](Cc1c[nH]c2ccccc12)C(=O)O , give the reported Ki.
4.6

---

Biological target: Endothelin-converting enzyme 1 (Homo sapiens, UniProt P42892)
Sequence (P42892 whole entry): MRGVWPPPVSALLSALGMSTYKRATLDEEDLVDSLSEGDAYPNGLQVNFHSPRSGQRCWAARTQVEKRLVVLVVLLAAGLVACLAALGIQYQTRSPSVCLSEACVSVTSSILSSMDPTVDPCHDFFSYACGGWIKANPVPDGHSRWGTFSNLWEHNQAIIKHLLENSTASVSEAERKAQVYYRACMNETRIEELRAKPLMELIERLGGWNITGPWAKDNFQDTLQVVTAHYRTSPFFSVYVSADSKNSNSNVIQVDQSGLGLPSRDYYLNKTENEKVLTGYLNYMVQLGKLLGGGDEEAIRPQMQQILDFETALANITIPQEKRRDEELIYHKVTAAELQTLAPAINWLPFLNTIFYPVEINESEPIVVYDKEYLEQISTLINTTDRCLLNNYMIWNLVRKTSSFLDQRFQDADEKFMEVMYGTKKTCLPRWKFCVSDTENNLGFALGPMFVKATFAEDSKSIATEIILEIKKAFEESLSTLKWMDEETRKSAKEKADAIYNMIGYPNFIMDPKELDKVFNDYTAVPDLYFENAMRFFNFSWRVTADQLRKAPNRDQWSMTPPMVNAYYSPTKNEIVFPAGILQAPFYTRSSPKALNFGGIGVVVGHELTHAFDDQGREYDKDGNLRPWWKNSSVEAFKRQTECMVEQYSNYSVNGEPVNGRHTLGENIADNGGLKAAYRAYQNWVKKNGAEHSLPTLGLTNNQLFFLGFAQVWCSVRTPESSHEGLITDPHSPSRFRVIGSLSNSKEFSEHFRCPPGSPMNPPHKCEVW
Result Type: Ki (nM)

In the examples that follow, each entry is paired with its recorded Ki.
1. O=C(O)C(Cc1c[nH]c2ccccc12)NC(=O)C(CS)C1CCc2cc(Br)ccc21 (stereo not drawn) ... 31
2. COc1ccc2c(c1)CC[C@@H]2[C@H](CS)C(=O)N[C@@H](Cc1c[nH]c2ccccc12)C(=O)O ... 100
3. O=C(O)[C@H](Cc1c[nH]c2ccccc12)NC(=O)[C@H](CS)[C@H]1CCc2cc(Br)ccc21 ... 18

P = CCOc1ccc2c(c1)CCC2C(CS)C(=O)NC(Cc1c[nH]c2ccccc12)C(=O)O (stereo not drawn)
Q = O=C(O)[C@H](Cc1c[nH]c2ccccc12)NC(=O)[C@@H](CS)[C@@H]1CCc2cc(Br)ccc21
Kindly identify the item with the lower Ki figure among these two: P and Q // return label of chosen record
P

---

Target: Angiotensin-converting enzyme (Rattus norvegicus, UniProt P47820)
Sequence (P47820 whole entry): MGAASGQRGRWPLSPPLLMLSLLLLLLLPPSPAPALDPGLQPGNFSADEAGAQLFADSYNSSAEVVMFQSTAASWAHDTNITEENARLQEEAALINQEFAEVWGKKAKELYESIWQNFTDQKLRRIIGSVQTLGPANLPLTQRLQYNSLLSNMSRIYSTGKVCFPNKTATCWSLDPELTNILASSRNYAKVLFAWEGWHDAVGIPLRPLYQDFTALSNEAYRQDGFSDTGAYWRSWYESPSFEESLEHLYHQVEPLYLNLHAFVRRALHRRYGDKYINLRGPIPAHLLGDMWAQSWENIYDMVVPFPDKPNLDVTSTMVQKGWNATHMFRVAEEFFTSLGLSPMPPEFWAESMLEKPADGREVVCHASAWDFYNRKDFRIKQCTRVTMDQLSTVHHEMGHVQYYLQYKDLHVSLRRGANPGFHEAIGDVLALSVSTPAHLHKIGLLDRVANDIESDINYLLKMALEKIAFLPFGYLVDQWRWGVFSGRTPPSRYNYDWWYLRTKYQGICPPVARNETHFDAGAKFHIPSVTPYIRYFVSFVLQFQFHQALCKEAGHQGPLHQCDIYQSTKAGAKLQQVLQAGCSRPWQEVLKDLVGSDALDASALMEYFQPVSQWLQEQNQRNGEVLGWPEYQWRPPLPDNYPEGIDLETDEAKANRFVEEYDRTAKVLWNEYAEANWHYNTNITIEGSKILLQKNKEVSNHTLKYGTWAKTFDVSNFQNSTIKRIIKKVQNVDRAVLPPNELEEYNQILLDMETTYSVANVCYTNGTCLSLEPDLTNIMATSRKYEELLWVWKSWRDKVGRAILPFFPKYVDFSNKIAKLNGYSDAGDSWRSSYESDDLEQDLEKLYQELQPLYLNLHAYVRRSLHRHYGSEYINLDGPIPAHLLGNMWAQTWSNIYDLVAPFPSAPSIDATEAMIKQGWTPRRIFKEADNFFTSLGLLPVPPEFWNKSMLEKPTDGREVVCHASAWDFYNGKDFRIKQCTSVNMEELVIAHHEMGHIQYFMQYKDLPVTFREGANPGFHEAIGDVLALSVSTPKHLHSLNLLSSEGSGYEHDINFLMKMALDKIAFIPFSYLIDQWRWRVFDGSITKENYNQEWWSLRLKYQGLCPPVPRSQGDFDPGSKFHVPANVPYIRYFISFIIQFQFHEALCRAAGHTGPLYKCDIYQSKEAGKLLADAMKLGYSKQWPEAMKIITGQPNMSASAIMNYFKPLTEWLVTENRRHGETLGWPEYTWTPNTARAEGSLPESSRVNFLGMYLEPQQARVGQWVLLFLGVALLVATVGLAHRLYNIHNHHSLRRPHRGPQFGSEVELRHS
Result Type: Ki (nM)

Solved cases below.
1) O=C(O)[C@H](Cc1c[nH]c2ccccc12)NC(=O)[C@@H](CS)[C@@H]1CCc2cc(Br)ccc21 ... 58
2) COc1ccc2c(c1)C(C(CS)C(=O)NC(Cc1c[nH]c3ccccc13)C(=O)O)CC2 (stereo not drawn) ... 35

P = CN(C)c1ccc2c(c1)CCC2C(CS)C(=O)NC(Cc1c[nH]c2ccccc12)C(=O)O (stereo not drawn)
Q = O=C(O)[C@H](Cc1c[nH]c2ccccc12)NC(=O)[C@H](CS)[C@@H]1CCc2cc(Br)ccc21
// max by Ki over [ P , Q ] Answer by stating the label of the chosen item.
Q
(Q: 66 nM, P: 44 nM)

a = N#Cc1ccc2c(c1)CCC2C(CS)C(=O)NC(Cc1c[nH]c2ccccc12)C(=O)O (stereo not drawn)
b = O=C(O)[C@H](Cc1c[nH]c2ccccc12)NC(=O)[C@H](CS)[C@H]1CCc2cc(Br)ccc21
From the items above, decide which of a and b has the lower Ki reading. The response must carry the label of the picked entry.
a
